Assay: Stability of the compound in human plasma used as 1:2 ratio of plasma to pH 7.4 PBS assessed as intact compound at 100 uM incubated for 24 hr […]
Assay type: ADME, cell-free
Settings: plasma diluted with PBS (1:2), read-out: Stability
remaining at 24 h, 100 µM values for the compounds below.

# example entries with known answers
smiles structure | remaining at 24 h, 100 µM
CC(=O)N[C@@H](CCCNC(=N)N)C(=O)N[C@@H](CCCCN)C(=O)NCC(=O)NCCCCC1CCN(CC(=O)N2c3ccccc3NC(=O)c3ccccc32)CC1 | > 99%
CC(=O)N[C@@H](CCCCN)C(=O)N[C@@H](CCCNC(=N)N)C(=O)NCCCCC1CCN(CC(=O)N2c3ccccc3NC(=O)c3ccccc32)CC1 | > 99%

// moving on: another record for remaining at 24 h, 100 µM
remaining at 24 h, 100 µM measured on CC(=O)N[C@@H](CCCCN)C(=O)N[C@@H](C)C(=O)N[C@@H](CCCNC(=N)N)C(=O)NCCN1CCN(CCCCC2CCN(CC(=O)N3c4ccccc4NC(=O)c4ccccc43)CC2)CC1 = > 99%

meta.source: ChEMBL document CHEMBL4396879
